Target of assay: full length MALT1 (Homo sapiens (Human), UniProt Q9UDY8)
Sequence (Q9UDY8 whole entry): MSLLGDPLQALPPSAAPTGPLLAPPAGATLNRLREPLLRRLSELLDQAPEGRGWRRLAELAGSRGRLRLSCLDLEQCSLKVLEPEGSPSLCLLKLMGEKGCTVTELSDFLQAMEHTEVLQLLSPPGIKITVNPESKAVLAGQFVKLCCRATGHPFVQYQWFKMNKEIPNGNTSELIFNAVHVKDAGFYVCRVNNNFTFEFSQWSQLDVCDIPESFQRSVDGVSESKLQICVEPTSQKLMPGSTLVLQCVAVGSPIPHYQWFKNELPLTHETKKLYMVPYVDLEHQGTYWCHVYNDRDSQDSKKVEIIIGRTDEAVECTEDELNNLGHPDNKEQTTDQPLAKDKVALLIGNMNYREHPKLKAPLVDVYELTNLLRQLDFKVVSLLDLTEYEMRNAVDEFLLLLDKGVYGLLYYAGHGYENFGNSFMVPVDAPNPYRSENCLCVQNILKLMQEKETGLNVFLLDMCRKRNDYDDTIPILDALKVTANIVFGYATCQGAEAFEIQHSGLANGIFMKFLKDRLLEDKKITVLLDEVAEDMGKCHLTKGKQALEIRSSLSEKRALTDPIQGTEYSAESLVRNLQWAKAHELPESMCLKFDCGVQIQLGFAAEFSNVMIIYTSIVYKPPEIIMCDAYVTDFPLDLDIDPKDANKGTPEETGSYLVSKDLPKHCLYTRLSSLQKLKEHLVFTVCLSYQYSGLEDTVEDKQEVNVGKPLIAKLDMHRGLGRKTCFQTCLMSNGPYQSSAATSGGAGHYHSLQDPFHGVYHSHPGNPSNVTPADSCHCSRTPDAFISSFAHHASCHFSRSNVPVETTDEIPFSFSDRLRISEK
Method summary: MALT1 Biochemical Assay
Test parameters: 15 nM enzyme, 30 μM peptide substrate Ac-Leu-Arg-Ser-Arg-Rh110-dPro, 30 min pre-incubation, 60 min reaction; mean value if tested more than once
pIC50: −log10 of the molar value. Structures can show the parent of a compound that is named as a salt.
Recorded metric: pIC50

Below are worked cases with known answers.
{"Molecule": "COC(=O)NCC1CCC(C(=O)N(C)[C@@H](c2ccc(Nc3cnc4nc(Cl)nn4c3[C@H](C)OC)cc2)C(F)(F)F)CC1 (some centres unmarked)", "pIC50": "> 7.00"}
{"Molecule": "CNC(=O)N1CCCC(C(=O)N(C)[C@@H](c2ccc(Nc3cnc4nc(Cl)nn4c3[C@H](C)OC)cc2)C(F)(F)F)C1 (some centres unmarked)", "pIC50": "6.00 to 7.00"}
{"Molecule": "CO[C@@H](C)c1c(Nc2ccc([C@H](N(C)C(=O)C3CCNCC3)C(F)(F)F)cc2)cnc2nc(Cl)nn12 [Compound 2.1, trifluoroacetate]", "pIC50": "6.00 to 7.00"}
{"Molecule": "COC(=O)[C@H]1CC[C@H](C(=O)N(C)[C@@H](c2ccc(Nc3cnc4nc(Cl)nn4c3[C@H](C)OC)cc2)C(F)(F)F)CC1", "pIC50": "6.00 to 7.00"}
{"Molecule": "CO[C@@H](C)c1c(Nc2ccc(C(N(C)C(C)=O)C(F)(F)F)cc2)cnc2nc(Cl)nn12 (some centres unmarked)", "pIC50": "6.00 to 7.00"}

The reported pIC50 of the molecule CO[C@@H](C)c1c(Nc2ccc([C@H](N(C)C(=O)C3CCS(=O)(=O)CC3)C(F)(F)F)cc2C)cnc2nc(Cl)nn12 was 6.00 to 7.00

The reported pIC50 of the molecule CO[C@@H](C)c1c(Nc2ccc([C@H](N(C)C(=O)[C@H]3CC[C@H](C(=O)N(C)C)CC3)C(F)(F)F)cc2)cnc2nc(Cl)nn12 was 6.00 to 7.00

The reported pIC50 of the molecule CO[C@@H](C)c1c(Nc2ccc(C(C)N(C)C(=O)C3CC3)cc2)cnc2nc(Cl)nn12 (some centres unmarked) was < 6.00

The reported pIC50 of the molecule CO[C@@H](C)c1c(Nc2ccc([C@H](N(C)C(=O)C3CCC(CN)CC3)C(F)(F)F)cc2)cnc2nc(Cl)nn12 (some centres unmarked) was > 7.00

The reported pIC50 of the molecule CO[C@@H](C)c1c(Nc2ccc([C@H](N(C)C(=O)C3CCC(NC(C)=O)CC3)C(F)(F)F)cc2)cnc2nc(Cl)nn12 (some centres unmarked) was > 7.00

The reported pIC50 of the molecule CO[C@@H](C)c1c(Nc2ccc([C@H](N(C)C(=O)C3CCS(=O)(=O)CC3)C(F)(F)F)c(C)c2)cnc2nc(Cl)nn12 was 6.00 to 7.00
